These data points were gathered from ChEMBL document CHEMBL1133979.

- assay.text: Half life in dog
- Assay type: ADME, organism-based, Canis lupus familiaris
- details: in vivo
readout: half-life (h)
Record the value in h, omitting the unit from your answer.

Query: May I ask what half-life has been recorded for "O=C(O)C[C@H](NC(=O)[C@@H]1CCCN(C(=O)CCC2CCNCC2)C1)c1cccnc1" ?
Result: 5

====

Task for the reader: assign each of the following compounds its reported bioavailability.
- assay.text: Oral bioavailability in dog
- Format: ADME, organism-based, Canis lupus familiaris
- details: in vivo
Record the value in %, omitting the unit from your answer.

Query: May I ask what bioavailability has been recorded for O=C(N[C@@H](CNC(=O)C1CCCn2c(/C=C/C3CCNCC3)nnc21)C(=O)O)OCc1ccccc1 (some centres not stated) ?
Result: 23

Query: What do you get for O=C(O)C[C@H](NC(=O)C1CCCn2c(/C=C/C3CCNCC3)nnc21)c1cccnc1 (some centres not stated) ?
Result: 31
